Source of measurements: the supplement of paper PMC10567573

B1: MYBL2 (parent)
chain: FPNRTDQQCQYRWLRVLNPDLVKG

Variants of: B1
assay.info: protein stability index of a GFP-peptide fusion (GPS, HEK-293T) (PSI 1-6); higher = more stable;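 note: lentivirally expressed fusions sorted by FACS into six bins by GFP to DsRed ratio, PSI derived from sequencing read proportions per bin multiplied by bin number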
condition.parameters: c terminus: a fixed tail appended
Decide by protein stability index: equal to or exceeding 2 means 1, less means -1.

In [3]: df
Out[3]:
                              chain  answer_label
 0   FPNRTDCQCQYRWLRVLNPDLVKG [Q7C]            -1
 1   EPNRTDQQCQYRWLRVLNPDLVKG [F1E]             1
 2  FPNRTDQQCQYCWLRVLNPDLVKG [R12C]             1
 3   FPNRTEQQCQYRWLRVLNPDLVKG [D6E]            -1
 4  FPNRTDQQCQYRWLHVLNPDLVKG [R15H]             1
 5   TPNRTDQQCQYRWLRVLNPDLVKG [F1T]             1
 6   FPNLTDQQCQYRWLRVLNPDLVKG [R4L]             1
 7   FPNRVDQQCQYRWLRVLNPDLVKG [T5V]            -1
 8  FPNRTDQQCQYRWLPVLNPDLVKG [R15P]            -1
 9   FPNPTDQQCQYRWLRVLNPDLVKG [R4P]             1
10  FPNRTDQQCKYRWLRVLNPDLVKG [Q10K]            -1
11  FPNRTDQQCQYRWLRVLNPYLVKG [D20Y]            -1
12  FPNRTDQQCQYRWLRVLAPDLVKG [N18A]             1
13  FPNRTDQQCQYRWLRVLNPDAVKG [L21A]            -1
14  FPNRTDQQCQYRWLRVANPDLVKG [L17A]             1
15   QPNRTDQQCQYRWLRVLNPDLVKG [F1Q]             1
16  FPNRTDQQCQYFWLRVLNPDLVKG [R12F]             1
17  FPNRTDQQCQYRWLRVLTPDLVKG [N18T]             1
18  FPNRTDQQCQYRWRRVLNPDLVKG [L14R]             1
19  FPNRTDQQCQYRWLRVLNPDQVKG [L21Q]             1
20  FPNRTDQQCQYRWLRVLNPDLVKR [G24R]            -1
21  FPNRTDQQCQYRWLRVLNPRLVKG [D20R]             1
22  FPNRTDQQCQYRWLRSLNPDLVKG [V16S]             1
23   FPCRTDQQCQYRWLRVLNPDLVKG [N3C]            -1
24  FPNRTDQQCQYRWLRHLNPDLVKG [V16H]             1
25  FPNRTDQQCQYRWWRVLNPDLVKG [L14W]            -1
26   FPNFTDQQCQYRWLRVLNPDLVKG [R4F]             1
27   FPNRTDSQCQYRWLRVLNPDLVKG [Q7S]            -1
28  FPNRTDQQCQYRWLAVLNPDLVKG [R15A]            -1
29   FPNRHDQQCQYRWLRVLNPDLVKG [T5H]            -1
30  FPNRTDQQCQYRWLRVLNPQLVKG [D20Q]            -1
31   FPNRTDQPCQYRWLRVLNPDLVKG [Q8P]             1
32   FFNRTDQQCQYRWLRVLNPDLVKG [P2F]            -1
33   FPNRTDQQWQYRWLRVLNPDLVKG [C9W]             1
34   FPNRTDQQQQYRWLRVLNPDLVKG [C9Q]             1
35   FPNRTTQQCQYRWLRVLNPDLVKG [D6T]            -1
36   KPNRTDQQCQYRWLRVLNPDLVKG [F1K]             1
37  FPNRTDQQCQYRWLRVNNPDLVKG [L17N]             1
38  FPNRTDQQCQMRWLRVLNPDLVKG [Y11M]             1
39  FPNRTDQQCQYRHLRVLNPDLVKG [W13H]             1
40  FPNRTDQQCQYRQLRVLNPDLVKG [W13Q]             1
41   FPNRTDQQYQYRWLRVLNPDLVKG [C9Y]             1
42  FPNRTDQQCQYRWLRVLNPDLVAG [K23A]            -1
43   FDNRTDQQCQYRWLRVLNPDLVKG [P2D]             1
44  FPNRTDQQCQYRWLTVLNPDLVKG [R15T]            -1
45  FPNRTDQQCQYRWLRVLNPDLRKG [V22R]            -1
46  FPNRTDQQCQYRWLRVLMPDLVKG [N18M]            -1
47  FPNRTDQQCQYRWLRVLNPDFVKG [L21F]             1
48  FPNRTDQQCQYRWLRVLNPDLVKT [G24T]            -1
49  FPNRTDQQCQYRWLRVLNPDLVKC [G24C]            -1
50   FPNRRDQQCQYRWLRVLNPDLVKG [T5R]            -1
51  FPNRTDQQCQYRWLRVLNPHLVKG [D20H]             1
52  FPNRTDQQCQYEWLRVLNPDLVKG [R12E]            -1
53  FPNRTDQQCQYLWLRVLNPDLVKG [R12L]            -1
54   FPMRTDQQCQYRWLRVLNPDLVKG [N3M]            -1
55  FPNRTDQQCQYGWLRVLNPDLVKG [R12G]            -1
56   FPNRTDKQCQYRWLRVLNPDLVKG [Q7K]            -1
57  FPNRTDQQCQYRWHRVLNPDLVKG [L14H]             1
58   FPNWTDQQCQYRWLRVLNPDLVKG [R4W]             1
59  FPNRTDQQCQYTWLRVLNPDLVKG [R12T]            -1
60  FPNRTDQQCQYRWQRVLNPDLVKG [L14Q]             1
61  FPNRTDQQCQYRWLRVLNPALVKG [D20A]             1
